Test system: MS2 coat protein
EXPERIMENT_NOTES: apparent KD of MS2 coat protein; designed switch direction (-1 OFF switch, 1 ON switch): -1; higher = weaker reporter binding
RUN_CONDITIONS: Eterna round: R95; input ligand: FMN 200 uM
MEASURED_ATTRIBUTE: apparent KD of MS2 coat protein (nM)
API: value field is a number in nM; no unit string.

Which apparent KD of MS2 coat protein reading was recorded for the sequence UUAUAUAGUGUGAGGAUAUGCUGGUCCUUGGAUCAGCAGAAGGCACAUGAGGAUCACCCAUGUAGUUAAUUUUA [JL bmx4 3.03] (puzzle: Brourd's mod of Exclusion 4) ?
118

Would you kindly repeat that for AUGUGGGUAUGAAGGUGUAGAUAGAGCGUACGUUAUGGAACAUGAGGAUCACCCAUGUAGCUUUUUGCUCGUCUUAU [JR_SV3TOV2_Sub034] (puzzle: Sensor v3, turn-off variant 2) ?
36.8

Would you kindly repeat that for GGUUUUCUUUUCCUUUCUUACAUGAGGAUCACCCAUGUUUCUUGUCGUGCUCGCGUUGCUCGUCUGUCUGUCUGUUG [salish99_TOv1_r3_076(!)] (puzzle: Sensor v3, turn-off variant 1) ?
45.9

Would you kindly repeat that for GAUUAUGCGAGCUUUAGGGACAUGAGGAUCACCCAUGUUCGUCUUAUUGGUCUAGAUACACUAACAUACCUAAAUCU [JMF 12] (puzzle: Sensor v3, turn-off variant 1) ?
15.2

Would you kindly repeat that for GAUUAUGCGAGCUUUAGGGACAUGAGGAUCACCCAUGUUCGUCUUAUUGGUCUGGGUACACUGACAUACCUAAAUCU [JMF 72] (puzzle: Sensor v3, turn-off variant 1) ?
33.9

Would you kindly repeat that for AGUACUAUCACGAAAGUGAUAGUACAAUAAGCAAGUGAAACAUGAGGAUCACCCAUGUCCUCAUUUGCUCGUCUUAU [salish99_TOv2_r3_200again] (puzzle: Sensor v3, turn-off variant 2) ?
17.8

Would you kindly repeat that for AAGAAACAUGAGGAUCACCCAUGUGAGGAUAUGAAAAAGAAAAGAAAAGAAAGAAGAAUCAGAAGGCACAAAGC [salish99-ex1_r3_090] (puzzle: Exclusion 1) ?
22.5

Would you kindly repeat that for UUCCUCGUUGUGAGGAUAUCGUCCGUGUUUUGUUACGAGAAGGCACAUGAGGAUCACCCAUGUUAUUUGAUUUU [JR_BMOE4_Sub074] (puzzle: Brourd's mod of Exclusion 4) ?
83.6

Would you kindly repeat that for AAAAGGCGAGGAUAUACAUGAGGAUCACCCAUGUGAAAGAAAGAAAGAAAGAAGAAAGGUAGAAGGCGCAAAGA [Mine, also!] (puzzle: Exclusion 3) ?
83.6

Would you kindly repeat that for UAUGUGUGAGGAUAUGGUAAAGAUAAGAUGAUGAAAGAACUCCAGAAGGCACAUGAGGAUCACCCAUGUAGAUG [JL-ex4-2.10 Jieux mod] (puzzle: Exclusion 4) ?
53.8
